Just for reference, patent US20050079529A1 is where these values come from.

Entries and their RELATIVE INTENSITY
Tested on: anti-dynorphin B monoclonal antibody
Method Description: Dynorphin B deletion peptide array, relative binding of anti-dynorphin B monoclonal antibody by fluorescence intensity
Setup Conditions: mean ± spread over N synthesis sites
Lab note: jot the number down without any unit.

[[record]]
substance = "Q F K V V T: deletion peptide from the dynorphin B sequence (QFKVVT)"
observable = "RELATIVE INTENSITY"
meas_value = 36.2

[[record]]
substance = "R R Q F K V V T: deletion peptide from the dynorphin B sequence (RRQFKVVT)"
observable = "RELATIVE INTENSITY"
meas_value = 98.8


Measured RELATIVE INTENSITY for this entry L R R Q F K V V T: deletion peptide from the dynorphin B sequence (LRRQFKVVT) on anti-dynorphin B monoclonal antibody: 86.9

Measured RELATIVE INTENSITY for this entry F L R R Q F K: deletion peptide from the dynorphin B sequence (FLRRQFK) on anti-dynorphin B monoclonal antibody: 10.2

Measured RELATIVE INTENSITY for this entry F L R R Q F K V: deletion peptide from the dynorphin B sequence (FLRRQFKV) on anti-dynorphin B monoclonal antibody: 13.7

Measured RELATIVE INTENSITY for this entry F L R R Q F K V V T: deletion peptide from the dynorphin B sequence (FLRRQFKVVT) on anti-dynorphin B monoclonal antibody: 84.2

Measured RELATIVE INTENSITY for this entry F L R R Q F: deletion peptide from the dynorphin B sequence (FLRRQF) on anti-dynorphin B monoclonal antibody: 8.5

Measured RELATIVE INTENSITY for this entry F L R R Q F K V V: deletion peptide from the dynorphin B sequence (FLRRQFKVV) on anti-dynorphin B monoclonal antibody: 37.4

Measured RELATIVE INTENSITY for this entry RQFKVVT on anti-dynorphin B monoclonal antibody: 93.6
